Test: drug combination growth inhibition, ovarian cancer – cell-based, oncology-focused library, rucaparib conditional, profiling panel (AID 1508598)
Details: patient-derived ovarian cancer cells, CellTiter-Glo viability, 144 h; at 1.25 µM; OCI-C5x cells; without rucaparib
Active and inactive are the calls of the source.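 The calls were made as follows: active = normalized viability below 100% at a tested concentration; inactive = the rest.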
Hi there, use one of these labels in your reply, thanks! 1.0 = active, 0.0 = inactive

COc1ncc(-c2ccc3nccc(-c4ccnnc4)c3c2)cc1NS(=O)(=O)c1ccc(F)cc1F :: 1.0
CN1CCN(c2ccc(OC(F)(F)F)c(Nc3ncc4c(n3)-c3c(c(C(N)=O)nn3CCO)CC4)c2)CC1 :: 1.0

Query: # outcome recorded in this test, key = "C[C@@H]1CN(CC(=O)Nc2ccc3c(c2)Cc2cccc(-c4cc(=O)cc(N5CCOCC5)o4)c2S3)C[C@H](C)O1"
Response: 0.0

Query: # outcome recorded in this test, key = "COc1cc(Nc2nc3ccccc3nc2NS(=O)(=O)c2ccc(NC(=O)c3ccc(C)c(OC)c3)cc2)cc(OC)c1"
Response: 0.0

Query: # outcome recorded in this test, key = "Cn1c(=O)c(F)c(Nc2ccc(I)cc2F)c2c(=O)n(C[C@@H](O)CO)cnc21"
Response: 1.0

Query: # outcome recorded in this test, key = "Cc1ccc(-c2csc(NC(=O)c3ccccc3)n2)c(C)c1"
Response: 0.0

Query: # outcome recorded in this test, key = "O=C(Nc1ccccc1-c1cn2c(CN3CCNCC3)csc2n1)c1cnc2ccccc2n1"
Response: 0.0

Query: # outcome recorded in this test, key = "CC(C)OC(=O)C1=CN(C(=O)c2ccc(F)c(F)c2)CC(C)(C)c2c1[nH]c1ccccc21"
Response: 0.0

Query: # outcome recorded in this test, key = "Cn1cncc1[C@@](N)(c1ccc(Cl)cc1)c1ccc2c(c1)c(-c1cccc(Cl)c1)cc(=O)n2C"
Response: 0.0

Query: # outcome recorded in this test, key = "c1ccc2c(CCNc3ccc(Nc4ccncc4)cc3)c[nH]c2c1"
Response: 0.0

Query: # outcome recorded in this test, key = COc1ccc(C2=NC(c3ccc(Cl)cc3)C(c3ccc(Cl)cc3)N2C(=O)N2CCNC(=O)C2)c(OC(C)C)c1 (centres undefined)
Response: 0.0

Query: # outcome recorded in this test, key = "Cn1cnc2c(F)c(Nc3ccc(Br)cc3Cl)c(C(=O)NOCCO)cc21"
Response: 1.0

Query: # outcome recorded in this test, key = "N#Cc1c(NC(=O)c2cccc3ccccc23)sc2c1CCCC2"
Response: 0.0
